Where these numbers come from: patent US20220119354A1

System: ryegrass, Italian (Lolium multiflorum)
PROTOCOL_SUMMARY: Test A preemergence, Italian ryegrass
Format: in vivo
MEASUREMENT_PARAMETERS: 125 g ai/ha, 0 to 100 scale, 0 is no effect, 100 is complete control
Record T whenever Ryegrass, Italian plant response rating is at 20 or higher; record F when lower.

## Task Decide: Ryegrass, Italian plant response rating of `C[C@@H](Nc1ncc(C(F)(F)F)c(N)n1)c1cc2c(Cl)cccc2s1` >= 20?
## Result T

## Task Given the entry `Cc1ccc2c([C@H](Nc3ncc(C(F)(F)F)c(N)n3)C3CC3)coc2c1` , answer whether its Ryegrass, Italian plant response rating meets or surpasses 20.
## Result T

## Task Does the compound `C[C@H](Nc1nc(N)c(C(F)(F)F)c(C(F)(F)F)n1)C1Cc2ccccc2C1` have recorded Ryegrass, Italian plant response rating that is 20 or more?
## Result F

## Task Decide: Ryegrass, Italian plant response rating of `C[C@@H](Nc1ncc(C(F)(F)F)c(N)n1)c1coc2ccccc12` >= 20?
## Result T

## Task Identify whether the reported Ryegrass, Italian plant response rating of the following compound is 20 or greater: CC(COc1cccc(C(F)(F)F)c1)Nc1ncc(C(F)(F)F)c(N)n1 (stereo not drawn)
## Result F

## Task Confirm if Ryegrass, Italian plant response rating reported for the compound `C[C@H](Nc1ncc(C(F)(F)F)c(N)n1)c1cc2c(F)cccc2o1` is 20 or above.
## Result F

## Task # check: Ryegrass, Italian plant response rating of CC(Nc1ncc(S(C)(=O)=O)c(N)n1)c1cc2ccccc2s1 (stereo not drawn) is greater than or equal to 20
## Result T

## Task Please indicate if the recorded Ryegrass, Italian plant response rating for Cc1ccc2c(C(C)Nc3ncc(C(F)(F)F)c(N)n3)coc2c1 (stereo not drawn) meets or exceeds 20.
## Result T

## Task Hi team, for CC(Nc1ncc(C(F)(F)F)c(N)n1)c1cc2ccc(Cl)cc2s1 (racemic) , is the recorded Ryegrass, Italian plant response rating at or above 20?
## Result F

## Task Does C[C@@H](Nc1ncc([S+](C)[O-])c(N)n1)c1cc2ccccc2s1 (stereo partly drawn) have a reported Ryegrass, Italian plant response rating of at least 20?
## Result F

## Task Hi, just wondering whether CC(Nc1ncc(C(F)(F)F)c(N)n1)c1cc2c(Br)cccc2o1 (stereo not drawn) shows Ryegrass, Italian plant response rating of 20 or higher.
## Result T

## Task Is Ryegrass, Italian plant response rating for `Nc1nc(N[C@@H](c2coc3ccccc23)C2CC2)ncc1C(F)(F)F` at or above 20?
## Result T

## Task In plain terms: is recorded Ryegrass, Italian plant response rating at least 20 for `C[C@@H](Nc1ncc(C(F)(F)F)c(N)n1)c1cc2cccc(F)c2s1` ?
## Result T

## Task Given Cc1cccc2oc(C(C)Nc3ncc(C(F)(F)F)c(N)n3)cc12 (stereo not drawn) , state whether its Ryegrass, Italian plant response rating is at least 20.
## Result T

## Task Has CC(COc1cccc(F)c1)Nc1ncc(C(F)(F)F)c(N)n1 (stereo not drawn) a recorded Ryegrass, Italian plant response rating greater than or equal to 20?
## Result F

----------
System: ryegrass, Italian (Lolium multiflorum)
PROTOCOL_SUMMARY: Test A preemergence, Italian ryegrass
Assay type: in vivo
MEASUREMENT_PARAMETERS: 125 g ai/ha, 0 to 100 scale, 0 is no effect, 100 is complete control
ASSAY_METRIC: Ryegrass, Italian plant response rating

The molecule listed as Nc1nc(NC(c2cc3ccccc3s2)C2CC2)ncc1C(F)(F)F (racemic) [Compound 94] shows Ryegrass, Italian plant response rating equal to 50

Note to self: Ryegrass, Italian plant response rating recorded for Cc1nc(NC(C)c2cc3ccccc3s2)nc(N)c1C(F)(F)F (stereo not shown) [Compound 105] was 20

For C[C@H](Nc1ncc(C(F)(F)F)c(N)n1)c1cc2cccc(F)c2o1 [Compound 72] the molecule record lists Ryegrass, Italian plant response rating as 0

Ryegrass, Italian plant response rating for CC[C@H](Nc1ncc(C(F)(F)F)c(N)n1)c1cc2ccc(F)cc2s1 [Compound 49] is 0

Record CC(Nc1ncc(C(F)(F)F)c(N)n1)c1coc2cc(Cl)ccc12 (racemic) [Compound 77] , field Ryegrass, Italian plant response rating: 20

Lab note: measured Ryegrass, Italian plant response rating of C[C@H](Nc1nc(N)c(C(F)(F)F)c(C(F)(F)F)n1)c1cc2ccccc2o1 [Compound 66] was 0

Quick note, Ryegrass, Italian plant response rating for Cc1cccc(OCC(C)Nc2ncc(C(F)(F)F)c(N)n2)c1 (stereo not shown) [Compound 32] landed at 0

Per the records, this molecule ( CC(F)c1nc(N[C@H](C)c2cc3ccccc3s2)nc(N)c1C(F)(F)F (stereo partly shown) [Compound 108] ) has Ryegrass, Italian plant response rating equal to 30

Ryegrass, Italian plant response rating for CC(COc1cc(F)cc(F)c1)Nc1ncc(C(F)(F)F)c(N)n1 (stereo not shown) [Compound 33] is 0

For reference, reported Ryegrass, Italian plant response rating for C[C@@H](Nc1ncc(C#N)c(N)n1)c1cc2ccccc2s1 [Compound 104] stands at 30

Ryegrass, Italian plant response rating for C[C@@H](Nc1ncc(C(F)(F)F)c(N)n1)c1cc2c(F)ccc(F)c2s1 [Compound 114] is 50

Lab note: measured Ryegrass, Italian plant response rating of C[C@@H](Nc1ncc(C(F)(F)F)c(N)n1)c1coc2cc(Cl)ccc12 [Compound 55] was 20

Entry C[C@@H](Nc1nc(N)c(C(F)(F)F)c(C(F)F)n1)c1cc2ccccc2o1 [Compound 111] ; Ryegrass, Italian plant response rating = 0

Input C[C@H](Nc1ncc(C(F)(F)F)c(N)n1)c1csc2ccccc12 [Compound 42] . Output Ryegrass, Italian plant response rating: 0

Record C[C@H](Nc1ncc(C(F)(F)F)c(N)n1)c1cc2ccc(F)cc2s1 [Compound 47] . Reported Ryegrass, Italian plant response rating: 0

Value of measured Ryegrass, Italian plant response rating for the entry CC[C@@H](Nc1ncc(C(F)(F)F)c(N)n1)c1cc2ccccc2s1 [Compound 43] : 20
